Attribution: ChEMBL document CHEMBL3886225

ASSAYED_SYSTEM: DNA-dependent protein kinase catalytic subunit (Homo sapiens)
Sequence (P78527 whole entry): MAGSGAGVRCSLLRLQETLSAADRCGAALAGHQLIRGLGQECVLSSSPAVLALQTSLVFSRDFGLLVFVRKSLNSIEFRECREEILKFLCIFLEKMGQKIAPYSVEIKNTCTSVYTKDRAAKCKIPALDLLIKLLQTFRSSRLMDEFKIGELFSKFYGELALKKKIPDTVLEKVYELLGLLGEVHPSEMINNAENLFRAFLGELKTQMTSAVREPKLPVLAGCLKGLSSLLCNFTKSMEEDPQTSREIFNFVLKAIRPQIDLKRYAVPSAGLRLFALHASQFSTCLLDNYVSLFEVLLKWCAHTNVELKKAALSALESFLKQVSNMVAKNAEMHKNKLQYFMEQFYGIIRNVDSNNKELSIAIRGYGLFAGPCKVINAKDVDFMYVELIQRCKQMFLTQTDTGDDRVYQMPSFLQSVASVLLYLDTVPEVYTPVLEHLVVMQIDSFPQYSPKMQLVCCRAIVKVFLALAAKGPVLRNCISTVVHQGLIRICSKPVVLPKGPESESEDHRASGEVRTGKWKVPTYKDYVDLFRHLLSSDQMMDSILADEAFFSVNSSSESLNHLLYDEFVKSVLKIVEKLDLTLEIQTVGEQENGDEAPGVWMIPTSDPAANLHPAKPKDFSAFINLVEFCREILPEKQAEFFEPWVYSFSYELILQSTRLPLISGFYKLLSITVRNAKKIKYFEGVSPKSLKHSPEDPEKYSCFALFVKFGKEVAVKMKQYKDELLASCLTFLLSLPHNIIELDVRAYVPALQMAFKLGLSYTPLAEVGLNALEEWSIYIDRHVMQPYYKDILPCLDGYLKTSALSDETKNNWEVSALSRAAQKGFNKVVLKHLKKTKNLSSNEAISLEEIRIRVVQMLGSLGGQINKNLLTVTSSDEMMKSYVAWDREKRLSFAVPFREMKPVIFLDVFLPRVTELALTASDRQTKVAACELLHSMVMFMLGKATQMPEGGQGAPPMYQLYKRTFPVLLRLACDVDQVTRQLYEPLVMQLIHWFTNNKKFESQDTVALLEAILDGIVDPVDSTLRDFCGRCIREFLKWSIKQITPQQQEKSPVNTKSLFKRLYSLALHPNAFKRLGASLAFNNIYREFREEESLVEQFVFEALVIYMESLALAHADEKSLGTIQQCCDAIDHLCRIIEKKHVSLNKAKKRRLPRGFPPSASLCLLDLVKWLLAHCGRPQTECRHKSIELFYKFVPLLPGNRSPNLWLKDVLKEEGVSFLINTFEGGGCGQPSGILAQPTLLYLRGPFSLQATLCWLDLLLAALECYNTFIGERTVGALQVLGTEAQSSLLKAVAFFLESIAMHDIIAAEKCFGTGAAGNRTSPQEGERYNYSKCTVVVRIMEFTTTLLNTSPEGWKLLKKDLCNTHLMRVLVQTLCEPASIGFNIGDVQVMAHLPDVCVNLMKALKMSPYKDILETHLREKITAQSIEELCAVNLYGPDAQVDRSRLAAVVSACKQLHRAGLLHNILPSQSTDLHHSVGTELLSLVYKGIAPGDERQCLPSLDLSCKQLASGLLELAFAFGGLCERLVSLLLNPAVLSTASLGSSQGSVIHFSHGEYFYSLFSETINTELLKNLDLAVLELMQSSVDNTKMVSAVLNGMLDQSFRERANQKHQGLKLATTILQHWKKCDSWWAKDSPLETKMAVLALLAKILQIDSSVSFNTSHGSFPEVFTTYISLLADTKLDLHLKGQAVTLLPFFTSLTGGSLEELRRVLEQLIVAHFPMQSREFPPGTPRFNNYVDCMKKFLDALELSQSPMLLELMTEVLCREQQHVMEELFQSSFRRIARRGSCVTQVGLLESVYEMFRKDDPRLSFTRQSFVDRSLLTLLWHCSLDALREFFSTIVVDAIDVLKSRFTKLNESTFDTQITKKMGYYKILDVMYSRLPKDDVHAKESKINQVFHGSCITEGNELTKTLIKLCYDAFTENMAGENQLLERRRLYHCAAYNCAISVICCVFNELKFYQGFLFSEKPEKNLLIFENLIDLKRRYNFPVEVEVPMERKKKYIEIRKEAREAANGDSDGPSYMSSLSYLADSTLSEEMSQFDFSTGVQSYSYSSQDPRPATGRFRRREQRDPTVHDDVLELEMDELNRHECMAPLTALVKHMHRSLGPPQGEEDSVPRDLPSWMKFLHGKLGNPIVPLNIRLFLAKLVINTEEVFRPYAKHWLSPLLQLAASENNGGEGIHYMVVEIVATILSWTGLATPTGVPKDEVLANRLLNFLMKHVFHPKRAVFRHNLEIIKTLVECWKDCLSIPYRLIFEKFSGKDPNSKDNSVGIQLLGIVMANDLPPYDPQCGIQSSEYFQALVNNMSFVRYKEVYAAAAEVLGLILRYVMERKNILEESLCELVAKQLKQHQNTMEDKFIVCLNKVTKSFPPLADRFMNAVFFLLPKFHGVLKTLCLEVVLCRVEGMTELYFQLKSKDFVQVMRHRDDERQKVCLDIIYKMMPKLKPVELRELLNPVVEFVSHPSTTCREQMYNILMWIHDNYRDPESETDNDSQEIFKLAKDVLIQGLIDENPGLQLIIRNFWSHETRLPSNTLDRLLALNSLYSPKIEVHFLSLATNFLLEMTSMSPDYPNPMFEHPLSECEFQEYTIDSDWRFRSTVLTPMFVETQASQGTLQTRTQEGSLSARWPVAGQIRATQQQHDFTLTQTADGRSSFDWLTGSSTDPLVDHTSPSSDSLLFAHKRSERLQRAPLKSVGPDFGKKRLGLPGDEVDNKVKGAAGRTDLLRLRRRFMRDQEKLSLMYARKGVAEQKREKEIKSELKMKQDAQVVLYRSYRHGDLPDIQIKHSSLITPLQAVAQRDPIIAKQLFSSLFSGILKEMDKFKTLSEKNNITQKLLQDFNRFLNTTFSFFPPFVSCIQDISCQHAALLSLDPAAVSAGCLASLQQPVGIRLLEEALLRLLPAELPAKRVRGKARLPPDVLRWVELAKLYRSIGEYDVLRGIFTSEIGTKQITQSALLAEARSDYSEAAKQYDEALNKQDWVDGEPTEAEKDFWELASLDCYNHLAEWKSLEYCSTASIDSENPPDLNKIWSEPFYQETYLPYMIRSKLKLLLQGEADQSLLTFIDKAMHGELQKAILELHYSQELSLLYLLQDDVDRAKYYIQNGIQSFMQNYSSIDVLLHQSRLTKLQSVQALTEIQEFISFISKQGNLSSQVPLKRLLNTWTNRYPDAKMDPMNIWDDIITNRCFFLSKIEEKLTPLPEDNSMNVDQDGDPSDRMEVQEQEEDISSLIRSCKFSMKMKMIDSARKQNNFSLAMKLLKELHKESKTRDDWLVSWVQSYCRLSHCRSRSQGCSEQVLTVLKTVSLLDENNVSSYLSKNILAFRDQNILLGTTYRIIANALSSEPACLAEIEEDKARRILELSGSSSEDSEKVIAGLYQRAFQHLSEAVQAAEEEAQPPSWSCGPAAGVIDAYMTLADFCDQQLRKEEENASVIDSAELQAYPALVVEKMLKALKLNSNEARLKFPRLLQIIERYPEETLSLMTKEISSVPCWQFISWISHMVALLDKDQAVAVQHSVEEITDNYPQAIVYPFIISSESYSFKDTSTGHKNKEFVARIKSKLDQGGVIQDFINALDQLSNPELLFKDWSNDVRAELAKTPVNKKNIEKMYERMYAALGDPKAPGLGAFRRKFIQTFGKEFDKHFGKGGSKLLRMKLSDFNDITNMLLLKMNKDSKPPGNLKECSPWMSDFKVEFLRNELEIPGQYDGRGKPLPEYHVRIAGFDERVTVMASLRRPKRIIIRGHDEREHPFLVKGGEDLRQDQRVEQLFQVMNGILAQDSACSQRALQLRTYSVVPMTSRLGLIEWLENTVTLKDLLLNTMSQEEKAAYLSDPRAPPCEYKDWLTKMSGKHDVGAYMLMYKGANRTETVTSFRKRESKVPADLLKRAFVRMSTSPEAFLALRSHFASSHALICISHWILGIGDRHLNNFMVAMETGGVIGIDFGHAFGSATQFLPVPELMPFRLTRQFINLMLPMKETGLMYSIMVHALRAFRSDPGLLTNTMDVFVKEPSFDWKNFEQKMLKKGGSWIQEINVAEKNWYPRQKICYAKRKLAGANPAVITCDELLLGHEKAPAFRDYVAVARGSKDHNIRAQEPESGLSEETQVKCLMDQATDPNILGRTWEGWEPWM
ASSAY: Biochemical Assay: The kinase assay was carried out in streptavidin-coated […] microtitre FlashPlates®. To this end, 1.5 μg of the DNA-PK/protein complex and 100 ng of biotinylated substrate, such as, for example, PESQEAFADLWKK biotin-NH2 (biotin-DNA-PK peptide), in a total volume of 36.5 μl (34.25 mM HEPES/KOH, 7.85 mM Tris-HCl, 68.5 mM KCl, 5 μM ATP, 6.85 mM MgCl2, 0.5 mM EDTA, 0.14 mM EGTA, 0.69 mM DTT, pH 7.4), were incubated at room temperature for 90 min with 500 ng of DNA from calf thymus, 0.1 μCi of 33P-ATP and 1.8% of DMSO per well with or without the test compound. The reaction was stopped using 50 μl/well of 200 mM EDTA. After incubation for a further 30 min at room temperature, the liquid was removed. Each well was washed three times with 100 μl of 0.9% sodium chloride solution. A non-specific reaction (blank value) was determined using 10 μM of a proprietary kinase inhibitor.
MEASURED_ENDPOINT: IC50

Query: For O=S(=O)(NC1CCCN(c2nc(Cl)nc3cc(N4CCOCC4)ccc23)C1)c1cccs1 (stereo unspecified) , what is its reported IC50?
Result: < 100 nM
